Answer each item with its documented pKd.
molecular target: FRMPD2_1, Q68DX3; test: holdup assay; parameters: key: below the threshold = too weak to quantify, mostly under pKd 3.1 to 4; settings: plain residues with an end cap or a label only (N-terminal biotin on a linker: ado-ado)
Sequence (Q68DX3 770-861): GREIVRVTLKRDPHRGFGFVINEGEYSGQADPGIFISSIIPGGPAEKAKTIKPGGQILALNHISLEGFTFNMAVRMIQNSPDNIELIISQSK
Answers are plain numbers.

MQHQRTHTRV [ZSCAN30, Q86W11]	3.88

Shift focus to the following entry.
query: # input binder: VKRNSKETVV [MARCHF3, Q86UD3] ; wanted: its pKd
result: 3.8
